biological target: human mGluR2 (Homo sapiens (Human), UniProt Q14416); assay: [35S]GTPγS binding assay (Affinity to mGluR2); type: biochemical; details: cell membrane fraction of HEK293 cells stably expressing human mGluR2; glutamic acid 10 μM; inhibition of specific [35S]GTPγS binding
Sequence (Q14416 19-872): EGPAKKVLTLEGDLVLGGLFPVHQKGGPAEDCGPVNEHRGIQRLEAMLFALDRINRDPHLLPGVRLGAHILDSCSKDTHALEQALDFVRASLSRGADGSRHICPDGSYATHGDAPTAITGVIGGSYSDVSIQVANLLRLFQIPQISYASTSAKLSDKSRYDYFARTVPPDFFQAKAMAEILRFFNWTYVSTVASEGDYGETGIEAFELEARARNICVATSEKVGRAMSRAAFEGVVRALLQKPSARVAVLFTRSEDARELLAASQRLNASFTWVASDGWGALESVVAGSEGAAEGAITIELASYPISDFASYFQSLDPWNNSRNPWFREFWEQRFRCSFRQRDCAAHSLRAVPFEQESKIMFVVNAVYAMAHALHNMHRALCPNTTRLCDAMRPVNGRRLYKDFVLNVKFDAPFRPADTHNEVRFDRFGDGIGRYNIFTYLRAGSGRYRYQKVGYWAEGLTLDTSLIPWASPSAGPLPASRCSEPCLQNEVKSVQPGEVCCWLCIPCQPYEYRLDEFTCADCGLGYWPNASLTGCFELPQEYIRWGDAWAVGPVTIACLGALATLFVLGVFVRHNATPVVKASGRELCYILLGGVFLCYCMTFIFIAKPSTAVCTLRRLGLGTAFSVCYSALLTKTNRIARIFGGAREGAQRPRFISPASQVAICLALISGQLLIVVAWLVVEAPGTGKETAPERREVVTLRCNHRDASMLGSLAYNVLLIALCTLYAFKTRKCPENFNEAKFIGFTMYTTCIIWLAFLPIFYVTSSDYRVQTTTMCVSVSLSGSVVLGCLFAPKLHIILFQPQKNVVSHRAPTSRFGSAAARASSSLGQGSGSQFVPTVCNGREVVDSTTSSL
Measurement Label: IC50 (nM)
API: value field is a number in nM; no unit string.

# lookup: IC50 of Cc1cc(-c2nc(-c3ccc(OCC4CC4)c(Cl)c3)n3c2CCOCC3)cc(C)n1
60.6

# lookup: IC50 of Cc1cc(-c2nc(-c3ccc(OCCF)c(Cl)c3)n3c2CCO[C@H](C)C3)cc(C)n1
11.9

# lookup: IC50 of Cc1cc(-c2nc(-c3ccc(OC(F)F)c(C)c3)n3c2CCO[C@H](CF)C3)cc(C(F)F)n1
20.8

# lookup: IC50 of Cc1cc(-c2nc(-c3ccc(OC4COC4)c(Cl)c3)n3c2CCO[C@H](C)C3)cc(C)n1
9.7
